Where do these numbers come from? They come from the supplement of paper PMC10567573.

B1: PDZK1 (parent)
chain: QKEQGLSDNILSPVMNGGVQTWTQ

Variants of: B1
Test: protein stability index of a GFP-peptide fusion (GPS, HEK-293T) (PSI 1-6); higher = more stable;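 further: lentivirally expressed fusions sorted by FACS into six bins by GFP to DsRed ratio, PSI derived from sequencing read proportions per bin multiplied by bin number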
Conditions: c terminus: a fixed tail appended
Label Satisfied when protein stability index is at or above 3; otherwise label Not satisfied.

mutation.code: V19M
classification: Not satisfied
//
mutation.code: L6N
classification: Satisfied
//
mutation.code: G5H
classification: Not satisfied
//
mutation.code: Q1T
classification: Not satisfied
//
mutation.code: D8I
classification: Not satisfied

As a next step, examine the variant that follows.
Is reported protein stability index greater than or equal to 3 here: N16C
Not satisfied
